Tested on: AGRRE (quackgrass (seedling))
Assay: Pre-plant incorporated (PPI) herbicidal activity, cool season
Assay type: in vivo, Elymus repens
Settings: weed, PPI application, 300 g/ha
Percent inhibition AGRRE reference
Return type: number; implicit unit %.

>>> endpoint_value("CCN(CC)C(=O)n1cnc(S(=O)(=O)C(F)(F)F)n1")
30
>>> endpoint_value("C=C(CC(F)(F)S(=O)(=O)c1ncn(C(=O)N(CC)CC)n1)C[Si](C)(C)C")
40

// switching to the query compound
Query block: Which Percent inhibition AGRRE value is on record for `CCN(CC)C(=O)n1cnc(S(=O)(=O)C(F)(F)SC)n1` ?
Result block: 80

----------
Tested on: DATST (jimsonweed)
Assay: Pre-plant incorporated (PPI) herbicidal activity, warm season
Type: in vivo, Datura stramonium
Settings: PPI application, 100 g/ha
Percent inhibition DATST reference
Return type: number; implicit unit %.

Previously resolved entries follow.
>>> endpoint_value("CCN(CC)C(=O)n1cnc(S(=O)(=O)C(F)(F)SCc2ccccc2)n1")
0
>>> endpoint_value("CCN(CC)C(=O)n1cnc(S(=O)(=O)C(F)(F)SCCOC)n1")
50
>>> endpoint_value("CCN(CC)C(=O)n1cnc(S(=O)(=O)C(F)(F)C(F)(F)Br)n1")
0

Query block: Which Percent inhibition DATST value is on record for `CCN(CC)C(=O)n1cnc(S(=O)(=O)C(F)(F)Cl)n1` ?
Result block: 30

----------
System: SETFA (giant foxtail)
Test: Pre-plant incorporated (PPI) herbicidal activity, warm season
Format: in vivo, Setaria faberi
Conditions: PPI application, 300 g/ha
Percent inhibition SETFA reference
Return type: number; implicit unit %.

>>> endpoint_value("CCN(CC)C(=O)n1cnc(S(=O)(=O)C(F)(F)SCC(=O)OC)n1")
60

Query block: Which Percent inhibition SETFA value is on record for `CCN(CC)C(=O)n1cnc(S(=O)(=O)C(F)(F)F)n1` ?
Result block: 100

Query block: Which Percent inhibition SETFA value is on record for `CCN(CC)C(=O)n1cnc(S(=O)(=O)C(F)(F)C(F)(F)Br)n1` ?
Result block: 100

Query block: Which Percent inhibition SETFA value is on record for `CCN(CC)C(=O)n1cnc(S(=O)(=O)C(F)(F)SCc2ccccc2)n1` ?
Result block: 100

Query block: Which Percent inhibition SETFA value is on record for `CCN(CC)C(=O)n1cnc(S(=O)(=O)C(F)(F)SC)n1` ?
Result block: 100

----------
Test system: SOLNI (black nightshade)
Experiment: Pre-emergence herbicidal activity, warm season
Format: in vivo, Solanum nigrum
Settings: GR80 = lowest tested rate (300, 100, 30, 10 g/ha) with 80% or greater inhibition; approx. 14 days after treating; 30/21° C.
property-label: Pre-emergence activity (GR80) SOLNI (g/ha)
Return type: number; implicit unit g/ha.

Previously resolved entries follow.
>>> endpoint_value("CCN(CC)C(=O)n1cnc(S(=O)(=O)C(F)(F)C(F)F)n1")
100
>>> endpoint_value("CCCN(CC)C(=O)n1cnc(S(=O)(=O)C(F)(F)SCC)n1")
300
>>> endpoint_value("CCN(CC)C(=O)n1cnc(S(=O)(=O)C(F)(F)SC)n1")
100
>>> endpoint_value("O=C(N1CCCC1)n1cnc(S(=O)(=O)C(F)(F)C(F)F)n1 [Example 59]")
300
>>> endpoint_value("O=C(N1CCCC1)n1cnc(S(=O)(=O)C(F)(F)C(F)F)n1 [Example 71]")
300

Query block: Which Pre-emergence activity (GR80) SOLNI value is on record for `C=CCC(F)(F)S(=O)(=O)c1ncn(C(=O)N(CC)CC)n1` ?
Result block: 100

Query block: Which Pre-emergence activity (GR80) SOLNI value is on record for `CCN(CC)C(=S)n1cnc(S(=O)(=O)C(F)(F)Cl)n1` ?
Result block: 100

Query block: Which Pre-emergence activity (GR80) SOLNI value is on record for `CCN(CC)C(=O)n1cnc(S(=O)(=O)C(F)(F)F)n1` ?
Result block: 300

----------
Test system: STEME (common chickweed)
Test: Pre-emergence herbicidal activity, cool season
Type: in vivo, Stellaria media
Conditions: lowest tested rate with 80% or greater inhibition; rates 300, 100, 30, 10 g/ha; about 14 days
property-label: Pre-emergence activity GR80, STEME

>>> endpoint_value("CCSC(F)(F)S(=O)(=O)c1ncn(C(=O)N(C)CCOC)n1")
"[empty]"
>>> endpoint_value("O=C(N1CCOCC1)n1cnc(S(=O)(=O)C(F)(F)Cl)n1")
"[empty]"
>>> endpoint_value("C=C(CC(F)(F)S(=O)(=O)c1ncn(C(=O)N(CC)CC)n1)C[Si](C)(C)C")
"[empty]"

----------
System: ECHCG (barnyardgrass)
Test: Pre-plant incorporated (PPI) herbicidal activity, warm season
Format: in vivo, Echinochloa crus-galli
Settings: pre-plant incorporated; lowest tested rate with 80% or greater inhibition; about 14 days
Description: In another set of tests, the pre-plant incorporated (PPI) activity of compounds of this invention was evaluated on the same species as for the pre-emergence tests described above. […] A pre-prepared topsoil mixture (described above) was placed in a pot and compacted to a depth of 1.0 to 1.25 cm from the top of the pot. […] A sufficient quantity of soil to cover the seeds and level fill the pot was weighed into an open container. […]
property-label: PPI activity GR80, ECHCG (g/ha)
Return type: number; implicit unit g/ha.

>>> endpoint_value("CCN(CC)C(=O)n1cnc(S(=O)(=O)C(F)(F)SCCOC)n1")
100
>>> endpoint_value("CCN(CC)C(=O)n1cnc(S(=O)(=O)C(F)(F)C(F)F)n1")
30
>>> endpoint_value("CCN(CC)C(=O)n1cnc(S(=O)(=O)C(F)(F)C(=O)c2ccccc2)n1")
100

Query block: Which PPI activity GR80, ECHCG value is on record for `CCSC(F)(F)S(=O)(=O)c1ncn(C(=O)N(CC)CC)n1` ?
Result block: 30

Query block: Which PPI activity GR80, ECHCG value is on record for `CCN(CC)C(=O)n1cnc(S(=O)(=O)C(F)(F)Br)n1` ?
Result block: 30

----------
Test system: SASKR (russian thistle)
Assay: Pre-emergence herbicidal activity, cool season
Assay type: in vivo, Salsola kali
Details: lowest tested rate with 80% or greater inhibition; rates 300, 100, 30, 10 g/ha; about 14 days
property-label: Pre-emergence activity GR80, SASKR

Previously resolved entries follow.
>>> endpoint_value("C=CCN(C)C(=O)n1cnc(S(=O)(=O)C(F)(F)SCC)n1 [Example 53]")
"[empty]"
>>> endpoint_value("O=C(N1CCCC1)n1cnc(S(=O)(=O)C(F)F)n1 [Example 24]")
"[empty]"
>>> endpoint_value("CN(C(=O)n1cnc(S(=O)(=O)C(F)F)n1)C1CCCCC1 [Example 32]")
"[empty]"
>>> endpoint_value("CCSC(F)(F)S(=O)(=O)c1ncn(C(=O)N(C)Cc2ccccc2)n1 [Example 56]")
"[empty]"
>>> endpoint_value("CCN(CC)C(=O)n1cnc(S(=O)(=O)C(F)(F)C(=O)c2ccccc2)n1 [Example 6]")
"[empty]"
>>> endpoint_value("CN(C(=O)n1cnc(S(=O)(=O)C(F)(F)Br)n1)C1CCCCC1 [Example 43]")
"[empty]"
>>> endpoint_value("CCSC(F)(F)S(=O)(=O)c1ncn(C(=O)N2CCOCC2)n1 [Example 48]")
"[empty]"
>>> endpoint_value("CCSC(F)(F)S(=O)(=O)c1ncn(C(=O)N(C)C2CCCCC2)n1 [Example 55]")
"[empty]"

Query block: Which Pre-emergence activity GR80, SASKR value is on record for CN(C)C(=O)n1cnc(S(=O)(=O)C(F)(F)Br)n1 [Example 37] ?
Result block: [empty]

Query block: Which Pre-emergence activity GR80, SASKR value is on record for CN(C(=O)n1cnc(S(=O)(=O)C(F)(F)Br)n1)c1ccccc1 [Example 38] ?
Result block: [empty]

Query block: Which Pre-emergence activity GR80, SASKR value is on record for O=C(N1CCCC1)n1cnc(S(=O)(=O)C(F)(F)C(F)F)n1 [Example 59] ?
Result block: [empty]

Query block: Which Pre-emergence activity GR80, SASKR value is on record for CCSC(F)(F)S(=O)(=O)c1ncn(C(=S)N(CC)CC)n1 [Example 58] ?
Result block: 300 g/ha

Query block: Which Pre-emergence activity GR80, SASKR value is on record for CCN(CC)C(=O)n1cnc(S(=O)(=O)C(F)(F)F)n1 [Example 2] ?
Result block: 100 g/ha

Query block: Which Pre-emergence activity GR80, SASKR value is on record for CCN(CC)C(=O)n1cnc(S(=O)(=O)C(F)(F)Cl)n1 [Example 3] ?
Result block: [empty]

Query block: Which Pre-emergence activity GR80, SASKR value is on record for C#CCN(C)C(=O)n1cnc(S(=O)(=O)C(F)(F)SCC)n1 [Example 54] ?
Result block: [empty]

Query block: Which Pre-emergence activity GR80, SASKR value is on record for CON(C)C(=O)n1cnc(S(=O)(=O)C(F)(F)Cl)n1 [Example 93] ?
Result block: [empty]

Query block: Which Pre-emergence activity GR80, SASKR value is on record for CN(C)C(=O)n1cnc(S(=O)(=O)C(F)(F)C(F)(F)Br)n1 [Example 73] ?
Result block: 100 g/ha

Query block: Which Pre-emergence activity GR80, SASKR value is on record for CN(C(=O)n1cnc(S(=O)(=O)C(F)(F)C(F)F)n1)c1ccccc1 [Example 62] ?
Result block: [empty]
